Test: Metabolic stability in human hepatic microsome
Format: in vitro ADME
Conditions: microsomes, pH 7.4; human hepatic microsome, NADPH(+); read-out: CL NADPH(+)
Starred links: 1 amine or outer side, 2 acyl side, 3 side chain; linkers in the order of their positions; H or OH if unused. Positions of bridges follow the written chain, without caps; N, C: chain ends. Non-standard residues stand in square brackets, D forms with d. Residues, ends and D or L forms follow the SMILES beside them. *: point of attachment. NMeF = CN[C@@H](Cc1ccccc1)C(=O)O; NMeGABA = CN(CCCC(=O)[*:2])[*:1]; NMeI = CC[C@H](C)[C@H](NC)C(=O)O; NMeL = CN[C@@H](CC(C)C)C(=O)O; NMeV = CN[C@H](C(=O)O)C(C)C; NMeA = CN[C@@H](C)C(=O)O; Piperidide = C1CCN(*)CC1; Sar = CNCC(=O)O; tBu = CC(C)(C)*
// label = yes (1) if microsomal CLint at 1 uM is not less than 40 µL/min/mg, otherwise no (0)

Example entries and their recorded answers appear below.
[Q] In plain terms: is recorded microsomal CLint at 1 uM at least 40 µL/min/mg for CC[C@H](C)[C@@H]1NC(=O)[C@H](C)N(C)C(=O)[C@H](C)N(C)C(=O)[C@H]([C@@H](C)O)NC(=O)[C@H](CC(C)C)N(C)C(=O)[C@H](CC(C)C)NC(=O)[C@H](Cc2ccccc2)N(C)C(=O)[C@@H](C)NC(=O)C[C@@H](C(=O)N(C)[C@@H](Cc2ccccc2)C(=O)N[C@@H](C)C(=O)N2CCCCC2)NC(=O)[C@H](C(C)C)N(C)C(=O)[C@H](Cc2ccccc2)N(C)C1=O [DP-180] ([dA][NMeF]L[NMeL]T[NMeA][NMeA]I[NMeF][NMeV]D[NMeF]A-Piperidide; lactam N-11) ?
[A] no (0)

[Q] Evaluate CC[C@H](C)[C@@H]1NC(=O)[C@H](CC(C)C)NC(=O)[C@H](Cc2ccccc2)NC(=O)[C@H](CC(C)C)NC(=O)CN(C)C(=O)[C@H](Cc2ccccc2)NC(=O)[C@H](C)NC(=O)C[C@@H](C(=O)N2CCCCC2)NC(=O)[C@H](Cc2ccccc2)NC(=O)[C@H]([C@@H](C)O)NC1=O [DP-330] (AF[Sar]LFLITFD-Piperidide; lactam N-10) : microsomal CLint at 1 uM at minimum 40 µL/min/mg?
[A] yes (1)

[Q] Answer whether microsomal CLint at 1 uM of C=C1CCC(=O)N[C@@H](C(C)C)C(=O)N(C)[C@@H](C)C(=O)N(C)[C@@H](CC(C)C)C(=O)N[C@@H](CC(C)C)C(=O)N[C@@H](Cc2ccccc2)C(=O)N(C)[C@@H](Cc2ccccc2)C(=O)N[C@@H]([C@@H](C)CC)C(=O)N2CCC[C@H]2C(=O)N[C@@H]([C@@H](C)O)C(=O)N(C)[C@@H](CC(C)C)C(=O)N[C@H](C(=O)N2CCCCC2)Cc2cccc1c2 [DP-884] is greater than or equal to 40 µL/min/mg.
[A] yes (1)

More entries:
[Q] Please check the record CC[C@H](C)[C@H]1C(=O)N(C)[C@@H](CC(C)C)C(=O)N[C@H](C(=O)N2CCCCC2)CC(=O)N(C)CCCC(=O)N(C)[C@@H](Cc2ccccc2)C(=O)N[C@@H](Cc2ccccc2)C(=O)N2CCC[C@H]2C(=O)N[C@@H](CC(C)C)C(=O)N(C)[C@@H](C(C)C)C(=O)N[C@@H]([C@@H](C)O)C(=O)N(C)CC(=O)N[C@@H](C)C(=O)N1C [DP-225] ([NMeGABA][NMeF]FPL[NMeV]T[Sar]A[NMeI][NMeL]D-Piperidide; lactam N-12) and state if its microsomal CLint at 1 uM is at or above 40 µL/min/mg.
[A] no (0)

[Q] For this molecule, is measured microsomal CLint at 1 uM 40 µL/min/mg or higher? CC(C)C[C@H]1C(=O)N(C)[C@@H](Cc2ccccc2)C(=O)NCC(=O)N[C@H](C(=O)N2CCCCC2)CC(=O)N(C)CC(=O)N[C@@H]([C@@H](C)O)C(=O)N(C)[C@@H](C)C(=O)N[C@@H](COC(C)(C)C)C(=O)N(C)[C@@H](Cc2ccccc2)C(=O)N1C [DP-271] ([Sar]T[NMeA]S(tBu)[NMeF][NMeL][NMeF]GD-Piperidide; lactam N-9)
[A] no (0)

* * *

The entries below come with measured Papp at 18 hours, 50 µM values attached.
Experiment: PAMPA (parallel artificial membrane permeability assay)
Assay type: in vitro ADME
Settings: PAMPA; membrane permeation rate (Pe); 50 mM MOPSO buffer pH 6.5 with 5.0% glycocholic acid, 37° C., 18 hours; read-out: iPAMPA Pe
Positions of bridges follow the written chain, without caps; N, C: chain ends. Non-standard residues stand in square brackets, D forms with d. Residues, ends and D or L forms follow the SMILES beside them. *: point of attachment. NMeF = CN[C@@H](Cc1ccccc1)C(=O)O; NMeI = CC[C@H](C)[C@H](NC)C(=O)O; NMeL = CN[C@@H](CC(C)C)C(=O)O; NMeV = CN[C@H](C(=O)O)C(C)C; NMeA = CN[C@@H](C)C(=O)O; Piperidide = C1CCN(*)CC1; Sar = CNCC(=O)O; tBu = CC(C)(C)*
Could you give me the number in ×10⁻⁶ cm/s? Just the number is fine.

// sample CC[C@H](C)[C@H]1C(=O)N[C@H](C(=O)N2CCCCC2)CC(=O)N[C@H](C(C)C)C(=O)N(C)[C@@H](CC(C)C)C(=O)N(C)[C@@H](Cc2ccccc2)C(=O)N(C)[C@@H](C)C(=O)N[C@@H]([C@@H](C)O)C(=O)N(C)CC(=O)N(C)[C@@H](CC(C)C)C(=O)N[C@@H](COC(C)(C)C)C(=O)N1C [DP-257] ([dV][NMeL][NMeF][NMeA]T[Sar][NMeL]S(tBu)[NMeI]D-Piperidide; lactam N-10) , its Papp at 18 hours, 50 µM was 33

# context switch: different molecule, same Papp at 18 hours, 50 µM
// recorded Papp at 18 hours, 50 µM for CC(C)[C@@H]1NC(=O)[C@H](Cc2ccccc2)N(C)C(=O)[C@H](C)N(C)C(=O)[C@H]([C@@H](C)O)NC(=O)CNC(=O)[C@H](C)N(C)C(=O)[C@H](Cc2ccccc2)NC(=O)[C@H](C)N(C)C(=O)C[C@@H](C(=O)N(C)[C@@H](Cc2ccccc2)C(=O)N(C)[C@@H](Cc2ccccc2)C(=O)N[C@@H](C)C(=O)N2CCCCC2)NC(=O)[C@H](C(C)C)N(C)C1=O [DP-393] ([NMeA]F[NMeA]GT[NMeA][NMeF]V[NMeV]D[NMeF][NMeF]A-Piperidide; lactam N-10) : 18

* * *

Experiment: PAMPA (parallel artificial membrane permeability assay)
Format: in vitro ADME
Conditions: PAMPA; membrane permeation rate (Pe); 50 mM MOPSO buffer pH 6.5 with 5.0% glycocholic acid, 37° C., 18 hours; read-out: iPAMPA Pe
Starred links: 1 amine or outer side, 2 acyl side, 3 side chain; linkers in the order of their positions; H or OH if unused. Positions of bridges follow the written chain, without caps; N, C: chain ends. Non-standard residues stand in square brackets, D forms with d. Residues, ends and D or L forms follow the SMILES beside them. *: point of attachment. NMeF = CN[C@@H](Cc1ccccc1)C(=O)O; NMeβAla = CN(CCC(=O)[*:2])[*:1]; NMeL = CN[C@@H](CC(C)C)C(=O)O; NMeV = CN[C@H](C(=O)O)C(C)C; NMeA = CN[C@@H](C)C(=O)O; Piperidide = C1CCN(*)CC1; Sar = CNCC(=O)O
assay_readout: Papp at 18 hours, 50 µM (×10⁻⁶ cm/s)
// return numeric value only (unit: ×10⁻⁶ cm/s, not printed)

Papp at 18 hours, 50 µM for CC(C)C[C@H]1C(=O)N[C@H](C(=O)N(C)[C@@H](Cc2ccccc2)C(=O)N[C@@H](C)C(=O)N2CCCCC2)CC(=O)N(C)[C@@H](C)C(=O)N(C)[C@@H](C)C(=O)N[C@@H](C(C)C)C(=O)N(C)[C@@H](C)C(=O)N(C)[C@@H](Cc2ccccc2)C(=O)N[C@@H]([C@@H](C)O)C(=O)N(C)CC(=O)N(C)[C@@H](C)C(=O)N1C [DP-349] ([NMeA][NMeA]V[NMeA][NMeF]T[Sar][NMeA][NMeL]D[NMeF]A-Piperidide; lactam N-10) is 3.9

The recorded Papp at 18 hours, 50 µM for CC(C)C[C@@H]1NC(=O)[C@H](Cc2ccccc2)N(C)C(=O)[C@H](C)NC(=O)[C@H](C)N(C)C(=O)C[C@@H](C(=O)N2CCCCC2)NC(=O)[C@H]([C@@H](C)O)NC(=O)[C@H](C)N(C)C(=O)[C@H](C)N(C)C(=O)[C@H](Cc2ccccc2)NC(=O)CN(C)C(=O)[C@H](C(C)C)N(C)C(=O)[C@H](C)N(C)C1=O [DP-470] ([NMeA]A[NMeF]L[NMeA][NMeV][Sar]F[NMeA][NMeA]TD-Piperidide; lactam N-12) is 1.2

# evaluate next
Query CC(C)C[C@H]1C(=O)N[C@@H](Cc2ccccc2)C(=O)N(C)[C@@H](C(C)C)C(=O)N[C@@H]([C@@H](C)O)C(=O)N(C)[C@@H](C)C(=O)NCC(=O)N(C)[C@@H](Cc2ccccc2)C(=O)N[C@H](C(=O)N(C)[C@@H](Cc2ccccc2)C(=O)N[C@@H](C)C(=O)N2CCCCC2)CC(=O)N(C)CCC(=O)N[C@@H](C(C)C)C(=O)N1C [DP-352] ([NMeβAla]V[NMeL]F[NMeV]T[NMeA]G[NMeF]D[NMeF]A-Piperidide; lactam N-10) yields Papp at 18 hours, 50 µM of 25
